Reference source: paper PMC6433685

SYSTEM_UNDER_TEST: HDAC9 (Homo sapiens)
Sequence (Q9UKV0 whole entry): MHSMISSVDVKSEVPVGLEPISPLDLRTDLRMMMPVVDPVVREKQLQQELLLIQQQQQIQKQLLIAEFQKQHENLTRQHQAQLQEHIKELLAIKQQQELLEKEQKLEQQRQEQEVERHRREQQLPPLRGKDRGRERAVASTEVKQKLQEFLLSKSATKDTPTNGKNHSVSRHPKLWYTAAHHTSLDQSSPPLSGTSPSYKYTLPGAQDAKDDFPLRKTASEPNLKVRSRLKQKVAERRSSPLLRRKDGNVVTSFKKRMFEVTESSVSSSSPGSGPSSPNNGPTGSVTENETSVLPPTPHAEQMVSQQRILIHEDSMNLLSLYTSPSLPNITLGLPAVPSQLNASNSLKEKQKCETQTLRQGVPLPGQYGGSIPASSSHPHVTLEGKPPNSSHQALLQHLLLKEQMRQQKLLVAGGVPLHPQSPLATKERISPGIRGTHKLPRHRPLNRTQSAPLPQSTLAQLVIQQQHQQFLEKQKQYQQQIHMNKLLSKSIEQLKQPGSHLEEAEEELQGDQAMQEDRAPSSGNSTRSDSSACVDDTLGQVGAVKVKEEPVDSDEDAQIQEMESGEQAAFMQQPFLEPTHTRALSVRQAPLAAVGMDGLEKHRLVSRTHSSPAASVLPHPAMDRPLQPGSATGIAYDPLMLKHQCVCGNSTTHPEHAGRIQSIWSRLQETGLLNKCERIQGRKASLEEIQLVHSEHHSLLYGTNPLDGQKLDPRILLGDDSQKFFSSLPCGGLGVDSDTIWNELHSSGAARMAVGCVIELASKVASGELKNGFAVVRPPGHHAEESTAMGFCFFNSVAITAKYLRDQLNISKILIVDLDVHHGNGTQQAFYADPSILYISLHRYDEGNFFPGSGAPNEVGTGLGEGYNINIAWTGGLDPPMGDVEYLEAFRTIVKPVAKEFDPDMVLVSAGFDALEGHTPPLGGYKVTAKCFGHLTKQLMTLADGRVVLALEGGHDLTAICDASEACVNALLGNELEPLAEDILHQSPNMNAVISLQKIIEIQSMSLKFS

SMILES_REPR: Cc1cc(C)cc(C(=O)NOCCCCCC(=O)NO)c1
IC50: > 20 µM

* * *

SYSTEM_UNDER_TEST: HDAC1 (Homo sapiens)
Sequence (Q13547 whole entry): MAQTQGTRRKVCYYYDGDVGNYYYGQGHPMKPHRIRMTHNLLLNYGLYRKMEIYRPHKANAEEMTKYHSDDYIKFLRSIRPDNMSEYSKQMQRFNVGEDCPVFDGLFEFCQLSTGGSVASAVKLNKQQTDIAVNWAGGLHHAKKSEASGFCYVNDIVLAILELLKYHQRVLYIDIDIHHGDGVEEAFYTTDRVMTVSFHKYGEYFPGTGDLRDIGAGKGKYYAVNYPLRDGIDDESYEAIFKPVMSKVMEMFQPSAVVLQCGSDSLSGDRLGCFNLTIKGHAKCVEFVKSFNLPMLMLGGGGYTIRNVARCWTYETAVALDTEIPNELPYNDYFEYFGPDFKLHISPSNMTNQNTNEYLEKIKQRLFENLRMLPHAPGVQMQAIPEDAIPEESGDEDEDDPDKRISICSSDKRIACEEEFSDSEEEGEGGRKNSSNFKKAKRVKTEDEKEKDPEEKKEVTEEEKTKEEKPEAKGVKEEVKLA
pIC50: −log10 of the molar value.
PROPERTY_NAME: pIC50

MOLECULE: Cc1cc(C)cc(C(=O)NOCCCCCC(=O)NO)c1 [LMK235]
OBSERVED: 7.52

* * *

SYSTEM_UNDER_TEST: HDAC6 (Homo sapiens)
Sequence (Q9UBN7 whole entry): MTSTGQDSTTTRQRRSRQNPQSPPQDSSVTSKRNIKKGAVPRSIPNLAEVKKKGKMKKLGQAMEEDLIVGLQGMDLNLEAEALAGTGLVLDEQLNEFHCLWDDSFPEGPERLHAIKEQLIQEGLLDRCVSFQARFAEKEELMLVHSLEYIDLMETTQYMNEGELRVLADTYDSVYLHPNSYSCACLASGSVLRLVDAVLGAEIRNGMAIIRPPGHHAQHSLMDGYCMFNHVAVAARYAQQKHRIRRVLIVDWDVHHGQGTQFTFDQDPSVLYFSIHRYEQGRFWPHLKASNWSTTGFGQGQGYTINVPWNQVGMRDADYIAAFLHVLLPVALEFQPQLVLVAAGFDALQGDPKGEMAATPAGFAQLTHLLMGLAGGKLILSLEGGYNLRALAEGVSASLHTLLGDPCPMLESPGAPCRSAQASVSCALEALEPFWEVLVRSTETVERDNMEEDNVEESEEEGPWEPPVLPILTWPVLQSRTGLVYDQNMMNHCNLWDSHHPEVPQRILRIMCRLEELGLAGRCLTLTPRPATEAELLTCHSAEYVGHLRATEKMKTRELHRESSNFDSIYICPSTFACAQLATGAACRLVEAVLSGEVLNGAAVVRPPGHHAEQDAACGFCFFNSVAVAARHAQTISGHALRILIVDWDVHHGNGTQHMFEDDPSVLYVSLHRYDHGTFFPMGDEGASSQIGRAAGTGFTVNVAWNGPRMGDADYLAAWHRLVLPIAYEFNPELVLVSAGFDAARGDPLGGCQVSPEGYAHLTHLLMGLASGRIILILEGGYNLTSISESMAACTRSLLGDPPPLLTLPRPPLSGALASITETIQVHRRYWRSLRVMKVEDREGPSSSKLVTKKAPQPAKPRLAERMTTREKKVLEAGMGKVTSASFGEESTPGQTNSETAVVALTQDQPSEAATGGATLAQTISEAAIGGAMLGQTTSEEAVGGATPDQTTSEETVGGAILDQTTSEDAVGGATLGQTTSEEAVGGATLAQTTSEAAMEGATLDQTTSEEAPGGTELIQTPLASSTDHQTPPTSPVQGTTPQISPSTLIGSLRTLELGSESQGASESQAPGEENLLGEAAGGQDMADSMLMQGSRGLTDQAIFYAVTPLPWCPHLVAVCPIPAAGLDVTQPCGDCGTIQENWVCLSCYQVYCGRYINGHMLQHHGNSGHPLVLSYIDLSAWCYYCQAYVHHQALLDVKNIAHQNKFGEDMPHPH

SMILES_REPR: Cc1cc(C)cc(C(=O)NOCCCCCC(=O)NO)c1
IC50, nM: 50

* * *

SYSTEM_UNDER_TEST: HDAC4 (Homo sapiens, UniProt P56524)
Sequence (P56524 whole entry): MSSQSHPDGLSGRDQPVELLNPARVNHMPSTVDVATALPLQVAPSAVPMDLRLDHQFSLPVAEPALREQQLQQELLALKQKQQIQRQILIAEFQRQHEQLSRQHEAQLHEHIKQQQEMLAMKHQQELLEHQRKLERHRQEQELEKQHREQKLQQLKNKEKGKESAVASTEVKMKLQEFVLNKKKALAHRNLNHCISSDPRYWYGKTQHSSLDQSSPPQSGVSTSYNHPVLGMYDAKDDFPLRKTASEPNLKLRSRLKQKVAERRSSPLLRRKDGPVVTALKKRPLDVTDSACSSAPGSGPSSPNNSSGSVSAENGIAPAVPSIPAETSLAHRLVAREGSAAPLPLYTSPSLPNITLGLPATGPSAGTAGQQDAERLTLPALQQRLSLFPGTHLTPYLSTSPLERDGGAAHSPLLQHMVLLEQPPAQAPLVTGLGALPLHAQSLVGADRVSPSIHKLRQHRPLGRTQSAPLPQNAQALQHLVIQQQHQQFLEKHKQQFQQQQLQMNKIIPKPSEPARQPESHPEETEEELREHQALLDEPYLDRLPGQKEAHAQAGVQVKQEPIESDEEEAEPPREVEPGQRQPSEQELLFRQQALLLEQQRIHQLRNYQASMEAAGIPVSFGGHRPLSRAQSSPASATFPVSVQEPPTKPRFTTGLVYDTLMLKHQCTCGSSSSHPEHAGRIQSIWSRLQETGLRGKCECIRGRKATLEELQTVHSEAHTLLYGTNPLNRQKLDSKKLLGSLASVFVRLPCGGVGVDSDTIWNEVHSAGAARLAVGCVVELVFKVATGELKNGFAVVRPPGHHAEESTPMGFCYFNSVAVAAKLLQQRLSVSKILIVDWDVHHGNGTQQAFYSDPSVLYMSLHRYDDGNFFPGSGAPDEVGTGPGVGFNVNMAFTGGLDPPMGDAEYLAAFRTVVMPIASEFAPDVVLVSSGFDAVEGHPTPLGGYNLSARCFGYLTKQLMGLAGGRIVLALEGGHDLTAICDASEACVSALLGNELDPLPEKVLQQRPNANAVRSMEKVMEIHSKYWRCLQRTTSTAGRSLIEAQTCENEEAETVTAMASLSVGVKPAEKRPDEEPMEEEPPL
pIC50: −log10 of the molar value.

SMILES_REPR: Cc1cc(C)cc(C(=O)NOCCCCCC(=O)NO)c1
pIC50: < 4.70
